Target: UniProtKB Q8VNN2
Sequence (Q8VNN2 whole entry, looked up): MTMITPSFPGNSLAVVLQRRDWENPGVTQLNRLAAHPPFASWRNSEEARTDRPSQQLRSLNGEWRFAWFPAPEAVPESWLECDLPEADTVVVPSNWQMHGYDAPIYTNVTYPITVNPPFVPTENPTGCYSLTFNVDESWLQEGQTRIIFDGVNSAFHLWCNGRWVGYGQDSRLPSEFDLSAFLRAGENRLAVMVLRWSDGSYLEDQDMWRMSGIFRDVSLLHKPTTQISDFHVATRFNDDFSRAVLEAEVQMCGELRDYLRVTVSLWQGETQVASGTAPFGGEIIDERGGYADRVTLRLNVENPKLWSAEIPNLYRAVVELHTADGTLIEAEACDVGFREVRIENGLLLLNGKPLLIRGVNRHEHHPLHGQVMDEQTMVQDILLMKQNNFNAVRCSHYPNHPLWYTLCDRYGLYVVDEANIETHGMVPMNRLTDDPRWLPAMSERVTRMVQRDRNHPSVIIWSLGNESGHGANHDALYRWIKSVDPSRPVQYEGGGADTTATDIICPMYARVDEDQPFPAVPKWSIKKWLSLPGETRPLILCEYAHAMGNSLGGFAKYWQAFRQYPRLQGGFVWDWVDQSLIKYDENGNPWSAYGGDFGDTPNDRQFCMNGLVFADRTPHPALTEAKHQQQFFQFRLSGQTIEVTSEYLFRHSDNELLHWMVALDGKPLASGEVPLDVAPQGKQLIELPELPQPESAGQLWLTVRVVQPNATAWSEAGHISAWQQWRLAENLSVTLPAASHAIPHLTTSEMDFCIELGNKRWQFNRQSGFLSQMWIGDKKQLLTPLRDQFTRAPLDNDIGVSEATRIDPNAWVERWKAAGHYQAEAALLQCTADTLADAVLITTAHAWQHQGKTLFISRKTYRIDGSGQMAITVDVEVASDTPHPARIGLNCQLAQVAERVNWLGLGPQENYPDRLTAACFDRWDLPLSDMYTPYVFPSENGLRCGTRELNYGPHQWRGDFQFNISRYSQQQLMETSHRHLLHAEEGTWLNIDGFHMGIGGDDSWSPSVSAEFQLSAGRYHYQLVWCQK
Experiment: potency against CXCR6 with APJ panel – cell-based, beta-arrestin, DiscoveRx, uHTS hits, dose response (AID 624129)
Settings: CXCR6 beta-arrestin (DiscoveRx) antagonist cell assay, b-galactosidase, dose range 1
Activity calls are given as the source filed them. How the calls were made is not given here.
API: response.call in active, inactive

Problem: Could you kindly confirm the outcome this assay logged for "CCOC(=O)CSc1cccc2cccnc12" ?
Result: inactive

Problem: State the result this test recorded for "O=C(N/N=C(\c1ccccc1)c1cccnc1)c1cccc(F)c1" .
Result: inactive

Problem: I'd appreciate the recorded outcome for "CCN1/C(=C\C=C2\C(=O)N(c3ccccc3)C(=S)N2C)Sc2ccccc21" from this test.
Result: inactive

Problem: Per the assay record, what outcome was assigned to "Cc1nc2c(-c3ccc(Cl)cc3)c(C)[nH]n2c(=O)c1Cc1ccccc1" ?
Result: inactive

Problem: Hi, sorry to bother you, what did the test record for "CCS(=O)(=O)c1ncc(Cl)c(C(=O)Nc2ccc(S(=O)(=O)N3CCC(C)CC3)cc2)n1" ?
Result: inactive

Problem: Please indicate how the test categorized "FC(F)(F)c1cnc(NNC(=S)Nc2ccc(Cl)cc2)c(Cl)c1" .
Result: active

Problem: Per the records of this test, what outcome belongs to "COC(CNC(=O)c1cc(C(=O)c2c(-c3c(Cl)cccc3Cl)noc2C)c[nH]1)OC" ?
Result: inactive

Problem: Assay result, entry CCCC1CCC(=NNC(=S)NCCc2ccccc2)CC1 (stereo not drawn) — outcome?
Result: inactive
